System: gene editing with Cas9
Assay: Screen of 322 new SSAP proteins, gene editing activity with Cas9 (Table 5)
Assay type: cell-based
Settings: normalized
Source text: 322 new SSAP proteins were identified from sequence data, synthesized, and screened for activity with Cas9 and dCas9. Gene editing activities are shown below in Table 5, followed by amino acid sequences of the proteins.
Observable: Cas9 with SSAP activity (normalized)
A bare number is all that is needed in reply.

Recorded results for 3 molecules are shown here.
| Molecule | Observable | Value Measured |
| --- | --- | --- |
| SSAP_309: SEQ ID NO: 478; Paenibacillus sp. FSL R7-0333 (protein, listed as Paenibacillus sp.) TVAIELQVQETLDRILDSKHDALPSDFNKKRFSENCKAYVADEKDLHKYSPEEIAANLFKGAVLGLDFLAKECHLISGGVELKFQTDYKGEMKLTKKYSVRPLLDVYAKNVREGDEFREEVIEGRPVIHFAPLPFNASSIIGSFAVALFQDGGMVYESIPAGEIEEIRKNYGKSLGDAWDKSQGEMYKRTVLRRLCKTIETDFDAEQRLIYDAGGAFEFTKQPARSRQQSPFNPPEESEVTQDDRVAETDQG | Cas9 with SSAP activity (normalized) | −1.807 |
| SSAP_305: SEQ ID NO: 474 in b312 (Table 9 prints 424); Clostridium akagii (protein, listed as Clostridium akagii) ATSESLKNQLVNKETRPPKDPFKALVYSAGIKKRFEDMLDKQANGFITSLLNLKQDKLKSCDDFTVLGSALKAAALKLPIDPNLGFAWIIPFKNHGKLEAQFQIGYKGFIQMAQRSGQYKKLNVTEIYEGQLKSFNPLTEEIVLDLDNIKSDLRKINKRYLIVMRMNLLALHLRKISKG | Cas9 with SSAP activity (normalized) | 0.408 |
| SSAP_141: SEQ ID NO: 310; Hungatella hathewayi (protein, listed as Hungatella hathewayi) RRDRNVTAVKQELEKKAAGTSQAVKLTKNMTIVDMVKALEPEIKRALPSILTPERFTRMALSAINNTPKLAECTPMSFIAALMNAAQLGLEPNTPLGQAYLIPYKNKGVLECQFQLGYRGMIDLAYRNERMQSIEAQTVYEHDEFFYELGLHPALVHRPTFEDRGEIRAFYAIFRLDNGGYRFEVMSKSYVDAYAMRYSKAFTSEFSPWKSNYEGMAKKTVIKQLLKYAPVKSEFQKAITLDETVKTELSVDMSEVQNEDLSETLTAESAA | Cas9 with SSAP activity (normalized) | −0.694 |

Next, consider the following molecule.
// Cas9 with SSAP activity (normalized) value for SSAP_189: SEQ ID NO: 358; Asaia sp. W19 (protein, listed as Asaia sp.) SNALATPTEKLRTQITSMTGEFRNALPSHIKPEKFQRVVMTVVQQNQGLMNADRKSLLASCLKCAADGLIPDGREAALVMFGQQVQYMPMLAGIQKRIRNSGEIASIQAHVIYENDHFIWHQGIDASIEHRPLFPGDRGKAIGAYAVAKFKDGSDPQFEVMDVAAIEKVRAVSRAGKSGPWVQWWDEMARKTVFRRLSKWLPMDTEAEDLMRRDDENDAQDVAAPTIRVEAEAPSKLDALEHDDDGVVLEETRELEGSAA : −2.025
